Assay: Aqueous stability assay (HPLC, pseudo first-order half-life)
Format: physicochemical
Conditions: acetate buffer pH 4.0; read-out: Acetate buffer (pH 4.0) t1/2 (converted)
Structures can show the parent of a compound that is named as a salt.
assay-readout: half-life (days)
Just the number in days, nothing appended.

compound="C/C(=N\\OC(=O)N(C)C[C@@H]1CCCN1)[C@H]1CCC2[C@@H]3CCC4=CC(=O)CC[C@]4(C)[C@H]3CC[C@@]21C.Cl (some centres unmarked) [32j]" readout_unit=days measured_value=48

Kindly review the next compound as well.
Could you tell me which half-life is on file for CNCCN(C)C(=O)O/N=C(\C)[C@H]1CC[C@H]2[C@@H]3CCC4=CC(=O)CC[C@]4(C)[C@H]3CC[C@]12C [32b, hydrochloride] ? 96

---

Experiment: Plasma stability assay (LC-MS/MS)
Format: in vitro ADME
Settings: human plasma, 37° C., 3 μM, 2 h
# label = criterion met if Plasma % rmn at 2 h < 70% else criterion not met

Worked examples follow.
compound="C/C(=N\\OC(=O)N(CCNC(C)(C)C)C(C)(C)C)[C@H]1CC[C@H]2[C@@H]3CCC4=CC(=O)CC[C@]4(C)[C@H]3CC[C@]12C.Cl [54c]" class="criterion not met"
compound="C/C(=N\\OC(=O)N(CCO)CCNCCO)[C@H]1CC[C@H]2[C@@H]3CCC4=CC(=O)CC[C@]4(C)[C@H]3CC[C@]12C.Cl [54d]" class="criterion met"
compound="CNCCN(C(=O)O/N=C(\\C)[C@H]1CC[C@H]2[C@@H]3CCC4=CC(=O)CC[C@]4(C)[C@H]3CC[C@]12C)C1CCCC1.O=C(O)C(F)(F)F [53d]" class="criterion met"

Does the reported Plasma % rmn at 2 h of the following compound sit strictly below 70%? CNCCN(C(=O)O/N=C(\C)[C@H]1CC[C@H]2[C@@H]3CCC4=CC(=O)CC[C@]4(C)[C@H]3CC[C@]12C)C1CC1.O=C(O)C(F)(F)F [53b] criterion met

Please answer likewise for CNCCN(C(=O)O/N=C(\C)[C@H]1CC[C@H]2[C@@H]3CCC4=CC(=O)CC[C@]4(C)[C@H]3CC[C@]12C)C(C)C.O=C(O)C(F)(F)F [53a] criterion met

Please answer likewise for CNCCN(CC(C)C)C(=O)O/N=C(\C)[C@H]1CC[C@H]2[C@@H]3CCC4=CC(=O)CC[C@]4(C)[C@H]3CC[C@]12C.O=C(O)C(F)(F)F [53e] criterion not met

Please answer likewise for C/C(=N\OC(=O)N(CCNC(C)C)C(C)C)[C@H]1CC[C@H]2[C@@H]3CCC4=CC(=O)CC[C@]4(C)[C@H]3CC[C@]12C.Cl [54b] criterion not met

---

Assay: Aqueous stability assay (HPLC, pseudo first-order half-life)
Type: physicochemical
Conditions: buffer; DPBS pH 7.0-7.3, 1 mg/mL, room temperature; read-out: PBS t1/2 (converted)
assay-readout: half-life

Here is how some compounds turned out for half-life.
compound="C/C(=N\\OC(=O)N(CCNC(C)(C)C)C(C)(C)C)[C@H]1CC[C@H]2[C@@H]3CCC4=CC(=O)CC[C@]4(C)[C@H]3CC[C@]12C.Cl [54c]" measured_value="> 24 h"
compound="C/C(=N\\OC(=O)OC[C@@H]1CCCN1)[C@H]1CCC2[C@@H]3CCC4=CC(=O)CC[C@]4(C)[C@H]3CC[C@@]21C.Cl (stereo partly drawn) [32n]" measured_value="0.09 h"

Kindly review the next compound as well.
Could you tell me which half-life is on file for CNCCN(CCC(=O)O)C(=O)O/N=C(\C)[C@H]1CC[C@H]2[C@@H]3CCC4=CC(=O)CC[C@]4(C)[C@H]3CC[C@]12C.O=C(O)C(F)(F)F [53h] ? > 24 h

---

Test: Plasma stability assay (LC-MS/MS)
Type: in vitro ADME
Details: human plasma, 37° C., 3 μM; read-out: Plasma t1/2 (converted)
Structures can show the parent of a compound that is named as a salt.
assay-readout: half-life (h)
Just the number in h, nothing appended.

Here is how some molecules turned out for half-life.
molecule="C/C(=N\\OC(=O)N(C)CCNCCOC(F)(F)F)[C@H]1CC[C@H]2[C@@H]3CCC4=CC(=O)CC[C@]4(C)[C@H]3CC[C@]12C.Cl [compound 41]" measured_value=1.1
molecule="C/C(=N\\OC(=O)N(C)C[C@@H]1CCCCN1)[C@H]1CCC2[C@@H]3CCC4=CC(=O)CC[C@]4(C)[C@H]3CC[C@@]21C.Cl (stereo partly shown) [32l]" measured_value=6.8
molecule="C/C(=N\\OC(=O)N(C)Cc1ccccn1)[C@H]1CC[C@H]2[C@@H]3CCC4=CC(=O)CC[C@]4(C)[C@H]3CC[C@]12C [compound 36]" measured_value=222

Kindly review the next molecule as well.
Could you tell me which half-life is on file for CNCCN(C)C(=O)O/N=C(\C)[C@H]1CC[C@H]2[C@@H]3CCC4=CC(=O)CC[C@]4(C)[C@H]3CC[C@]12C [32b, hydrochloride] ? 1.5

---

Test: Aqueous stability assay (HPLC, pseudo first-order half-life)
Type: physicochemical
Settings: buffer; DPBS pH 7.0-7.3, 1 mg/mL, room temperature; read-out: PBS t1/2 (converted)
Protocol: Aqueous stability experiments were performed on an Agilent 1100 HPLC equipped with an Agilent 1200 autosampler. […] […] Immediately after sample preparation, injection by the HPLC autosampler was performed, which was recorded as the initial time point (t=0 min). […] Next, the area of the parent peak in each chromatogram was determined by automated integration in the Agilent ChemStation software. […] Finally, the aqueous stability was evaluated using the following equation: […]
# half-life per entry
Just the number in h, nothing appended.

compound="C/C(=N\\OC(=O)N(C)C[C@@H]1C[C@@H](O)CN1)[C@H]1CC[C@H]2[C@@H]3CCC4=CC(=O)CC[C@]4(C)[C@H]3CC[C@]12C.O=C(O)C(F)(F)F [32m]" measured_value=1.3
compound="C/C(=N\\OC(=O)N(C)C[C@@H]1CCCN1)[C@H]1CCC2[C@@H]3CCC4=CC(=O)CC[C@]4(C)[C@H]3CC[C@@]21C.Cl (stereo partly drawn) [32j]" measured_value=1.9
compound="C/C(=N\\OC(=O)N(C)CCNCCOC(F)(F)F)[C@H]1CC[C@H]2[C@@H]3CCC4=CC(=O)CC[C@]4(C)[C@H]3CC[C@]12C.Cl [compound 41]" measured_value=28.5

Kindly review the next compound as well.
Could you tell me which half-life is on file for C/C(=N\OC(=O)OCCN(C)C)[C@H]1CC[C@H]2[C@@H]3CCC4=CC(=O)CC[C@]4(C)[C@H]3CC[C@]12C.Cl [compound 35] ? 3.5

---

# Plasma t1/2 per entry
Experiment: Plasma stability assay (LC-MS/MS)
Type: in vitro ADME
Details: human plasma, 37° C., 3 μM
Just the number in h, nothing appended.

Here is how some compounds turned out for Plasma t1/2.
compound=C/C(=N\OC(=O)OCCN(C)C)[C@H]1CC[C@H]2[C@@H]3CCC4=CC(=O)CC[C@]4(C)[C@H]3CC[C@]12C.Cl assay_readout="Plasma t1/2" readout_unit=h measured_value=7.2
compound="C/C(=N\\OC(=O)N(C)CCNCCF)[C@H]1CC[C@H]2[C@@H]3CCC4=CC(=O)CC[C@]4(C)[C@H]3CC[C@]12C.O=C(O)C(F)(F)F [32o]" assay_readout="Plasma t1/2" readout_unit=h measured_value=2.2

Kindly review the next compound as well.
Could you tell me which Plasma t1/2 is on file for C/C(=N\OC(=O)N(C)CCNCCO)[C@H]1CC[C@H]2[C@@H]3CCC4=CC(=O)CC[C@]4(C)[C@H]3CC[C@]12C [32d] ? 2.8

---

# half-life at 1 mg/mL per entry
Test: Aqueous stability assay (HPLC, pseudo first-order half-life)
Format: physicochemical
Details: buffer; DPBS pH 7.0-7.3, 1 mg/mL, room temperature; read-out: PBS t1/2 (converted)
Structures can show the parent of a compound that is named as a salt.

Here is how some molecules turned out for half-life at 1 mg/mL.
molecule="C/C(=N\\OC(=O)NCCN)[C@H]1CC[C@H]2[C@@H]3CCC4=CC(=O)CC[C@]4(C)[C@H]3CC[C@]12C [32a, hydrochloride]" measured_value="> 30 h"
molecule="C/C(=N\\OC(=O)OCCN)[C@H]1CC[C@H]2[C@@H]3CCC4=CC(=O)CC[C@]4(C)[C@H]3CC[C@]12C [32f, hydrochloride]" measured_value="0.11 h"
molecule="C/C(=N\\OC(=O)NCCCN)[C@H]1CC[C@H]2[C@@H]3CCC4=CC(=O)CC[C@]4(C)[C@H]3CC[C@]12C [32e, hydrochloride]" measured_value="2880 h"
molecule="C/C(=N\\OC(=O)N(C)CCNCCF)[C@H]1CC[C@H]2[C@@H]3CCC4=CC(=O)CC[C@]4(C)[C@H]3CC[C@]12C.O=C(O)C(F)(F)F [32o]" measured_value="36.1 h"

Could you tell me which half-life at 1 mg/mL is on file for CNCCN(CCO)C(=O)O/N=C(\C)[C@H]1CC[C@H]2[C@@H]3CCC4=CC(=O)CC[C@]4(C)[C@H]3CC[C@]12C [32c] ? 24.8 h
